- STUDY_SYSTEM: PPAR Delta (Homo sapiens, UniProt Q03181)
- ASSAY_METHOD_TEXT: PathHunter NHR protein interaction / nuclear translocation agonist test, PPAR Delta
- Assay type: cell-based
- PROTOCOL_CONDITIONS: agonist mode; read-out: PPAR Delta EC50
READOUT: EC50

>>> print(df.to_string())
                                   molecule  readout    assay_value
0  CSc1ccc(C(=O)C2CN(C(=O)Oc3ccc(Br)cc3)CC2Cc2cc(C)c(OC(C)(C)C(=O)O)c(C)c2)cc1 (stereo not drawn) [Compound 29]     EC50       < 100 nM
1  Cc1cc(CC2CN(C(=O)Oc3ccccc3)CC2C(=O)c2ccc(Cl)cc2)cc(C)c1OC(C)(C)C(=O)O (single isomer, unassigned) [Compound 70]     EC50       < 100 nM
2  CSc1ccc(C(=O)[C@H]2CN(C(=O)Oc3cnn(C)c3)C[C@@H]2Cc2cc(C)c(OC(C)(C)C(=O)O)c(C)c2)cc1 (racemic) [Compound 48]     EC50  100 to 150 nM

---

Each entry below lists one item and its recorded Emax value.
- STUDY_SYSTEM: PPAR Delta (Homo sapiens)
- Sequence (Q03181 1-441): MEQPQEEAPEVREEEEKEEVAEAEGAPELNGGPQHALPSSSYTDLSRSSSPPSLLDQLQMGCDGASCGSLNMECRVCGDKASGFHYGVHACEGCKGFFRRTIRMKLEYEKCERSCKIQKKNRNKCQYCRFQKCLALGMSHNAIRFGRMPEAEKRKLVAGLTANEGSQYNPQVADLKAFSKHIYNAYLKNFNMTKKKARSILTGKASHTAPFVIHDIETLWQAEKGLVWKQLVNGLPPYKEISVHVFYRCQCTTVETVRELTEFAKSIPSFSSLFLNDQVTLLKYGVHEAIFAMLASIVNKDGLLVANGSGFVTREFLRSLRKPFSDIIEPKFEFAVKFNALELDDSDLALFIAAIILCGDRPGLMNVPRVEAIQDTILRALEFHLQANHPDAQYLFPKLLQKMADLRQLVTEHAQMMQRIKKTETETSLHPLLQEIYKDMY
- ASSAY_METHOD_TEXT: PathHunter NHR protein interaction / nuclear translocation agonist test, PPAR Delta
- Format: cell-based
- PROTOCOL_CONDITIONS: read-out: PPAR Delta Maximum Activation Response %
READOUT: Emax

                                    compound  assay_value
 0  COc1ccc(OC(=O)N2CC(C(=O)c3ccc(SC)cc3)[C@@H](c3cc(C)c(OC(C)(C)C(=O)O)c(C)c3)C2)cc1 (mixture of isomers)    50 to 80%
 1  CSc1ccc(C(=O)[C@H]2CNC[C@@H]2CCc2cc(C)c(OC(C)(C)C(=O)O)c(C)c2)cc1 (racemic)    50 to 80%
 2  CSc1ccc(C(=O)C2CN(C(=O)Oc3ccc(C)cc3)CC2c2cc(C)c(OC(C)(C)C(=O)O)c(C)c2)cc1 (single isomer, unassigned)   80 to 100%
 3  CSc1ccc(C(=O)C2CN(C(=O)Oc3ccc(Br)cc3)CC2Cc2cc(C)c(OC(C)(C)C(=O)O)c(C)c2)cc1 (stereo not drawn)   80 to 100%
 4  CSc1ccc(C(=O)C2CN(C(=O)Oc3ccc(F)cc3)CC2Cc2cc(C)c(OC(C)(C)C(=O)O)c(C)c2)cc1 (single isomer, unassigned)    50 to 80%
 5  CSc1ccc(C(=O)C2CN(C(=O)Oc3ccccc3)CC2c2cccc(OC(C)(C)C(=O)O)c2)cc1 (stereo not drawn)   80 to 100%
 6  CSc1ccc(C(=O)C2CN(C(C)=O)CC2c2cc(C)c(OC(C)(C)C(=O)O)c(C)c2)cc1 (single isomer, unassigned)    50 to 80%
 7  CSc1ccc(C(=O)C2CN(C(=O)Oc3ccc(Cl)cc3)CC2Cc2cc(C)c(OC(C)(C)C(=O)O)c(C)c2)cc1 (single isomer, unassigned)    50 to 80%
 8  CSc1ccc(C(=O)C2CN(C(=O)Oc3ccc(Cl)cc3)CC2c2cccc(OC(C)(C)C(=O)O)c2)cc1 (single isomer, unassigned)    50 to 80%
 9  CSc1ccc(C(=O)/C=C/c2cc(C)c(OC(C)(C)C(=O)O)c(C)c2)cc1 [GFT-505, Elafibranor, reference compound]    50 to 80%
10  Cc1cc(CC[C@H]2CN(C(=O)Oc3ccccc3)C[C@@H]2C(=O)c2ccc(S(C)(=O)=O)cc2)cc(C)c1OC(C)(C)C(=O)O (racemic)   80 to 100%
11  CSc1ccc(C(=O)[C@H]2CN(C(=O)Oc3ccc(C)nc3)C[C@@H]2Cc2cc(C)c(OC(C)(C)C(=O)O)c(C)c2)cc1 (racemic)    50 to 80%
